Target: T1, canine PD-L1 (Acro Biosystems, Cat #PDL-C52H4) (canine, UniProt E2RKZ5 19-236)
T1 construct: not shown: The vendor's tag, probably a polyhistidine tag
T1 sequence: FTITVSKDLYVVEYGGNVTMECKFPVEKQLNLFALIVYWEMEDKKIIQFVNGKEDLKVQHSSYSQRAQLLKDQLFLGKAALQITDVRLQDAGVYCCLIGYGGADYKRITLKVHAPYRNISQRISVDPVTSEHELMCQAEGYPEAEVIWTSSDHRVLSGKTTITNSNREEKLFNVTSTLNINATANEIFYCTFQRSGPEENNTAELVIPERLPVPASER
Assay: ELISA
Endpoint Label: binding result

* 74F4 (antibody, human IgG1, V domains shown) VH: QEQLEESGGGLVQPEGSLTLTCTASGFSFSGDYYMSWVRQAPGKGLEWIASIYTGSLNTYYATWAKGRFTISLTSSTTVTLQMTSLTAADTATYFCARRNKNADYGHFDLWGPGTLVTVSS VL: YDMTQTPASVEVAVGGTVTIKCQASQSINDRLAWYQQSPGQPPKLLIYGASTLASGVPSRFKGSGSGTDFTLTISDLECADAATYYCQQGWTVSSLDNAFGGGTEVVAK | no binding
* 62E6 (antibody, human IgG1, V domains shown) VH: QEQLEESGGDLVKPEGSLTLTCTASGFSFSGDYYMSWVRQAPGKGLEWIASIYTGSLNIYYATWAKGRFTISLTSSTTVTLQMTSLTAADTATYFCARRNKNADYGHFDLWGPGTLVTVSS VL: YDMTQTPASVEVAVGGTVTIKCQASQSINDRLAWYQQKPRQPPKLLIYGASTLASGVPSRFKGSGSGTEFTLTISDLECVDAATYYCQQGWTVSSLDNAFGGGTEVVAK | no binding
